- testedSystem: 5HTBP construct A1 (S92E) (Aplysia californica, UniProt Q8WSF8, S111E)
- Sequence (Q8WSF8 20-236 S111E): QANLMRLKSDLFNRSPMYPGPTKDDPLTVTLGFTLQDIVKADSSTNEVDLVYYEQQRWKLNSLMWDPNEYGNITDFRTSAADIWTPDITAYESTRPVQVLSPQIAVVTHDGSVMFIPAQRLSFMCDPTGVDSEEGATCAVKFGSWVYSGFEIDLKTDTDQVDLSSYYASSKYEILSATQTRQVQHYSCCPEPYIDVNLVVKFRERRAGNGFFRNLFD
- procedureSummary: Competition binding with [3H]granisetron
- runConditions: read-out: Ki, [3H]granisetron binding; single mutant construct A1 (S92E)
measuredParameter: pKi
In simple prose, pKi is minus the logarithm base ten of a concentration in moles per litre.

Q: pKi lookup needed for CN1C2CCCC1CC(NC(=O)c1nn(C)c3ccccc13)C2 (stereo not shown) [[^3H]granisetron, [3H]BRL-43694] , thanks.
A: 6.57
